All figures here come from PubChem BioAssay (NCI).

experiment: NCI Yeast Anticancer Drug Screen. Data for the bub3 strain (AID 167); conditions: S. cerevisiae bub3 mutant strain, at 11.0 µM
About 79,000 compounds went through this panel and 15% of them were active in at least one assay; those are over-represented in the sample as a whole. Calls of active or inactive are those of the source. Rule as the data show it: active = growth inhibition above about 70%; inactive = the rest.
Outcome codes: TRUE = active, FALSE = inactive

>  <COMPOUND>
CCCCCCCCSC1=C(Cl)C(=O)C(OC)=C(OC)C1=O

>  <GROUP_LABEL>
FALSE

$$$$
>  <COMPOUND>
CCCCCCCSCC1C(=O)C23C(O)C1CCC2C12COC3(O)C(O)C1C(C)(C)CCC2O (configuration not stated)

>  <GROUP_LABEL>
TRUE

$$$$
>  <COMPOUND>
O=C1c2ccccc2N2OC3(N4CCCC4)CCCCC3C12c1ccccc1 (configuration not stated)

>  <GROUP_LABEL>
FALSE

$$$$
>  <COMPOUND>
O=C(c1cc(=O)c2ccc(O)cc2o1)c1ccc(Cl)cc1Cl

>  <GROUP_LABEL>
FALSE

$$$$
>  <COMPOUND>
Cc1ccc(NC(Nc2ccc(C)cc2C)=C(C(Cl)=C(Cl)Cl)[N+](=O)[O-])c(C)c1

>  <GROUP_LABEL>
FALSE

$$$$
>  <COMPOUND>
O=C(C#Cc1ccccc1)/C=C/c1ccccc1

>  <GROUP_LABEL>
FALSE

$$$$
>  <COMPOUND>
CC(C)OC(=O)NNc1cccc(Cl)c1

>  <GROUP_LABEL>
TRUE

$$$$
>  <COMPOUND>
O=[N+]([O-])[O][Sn]([O][Sn]([O][N+](=O)[O-])([c]1ccccc1)[c]1ccccc1)([c]1ccccc1)[c]1ccccc1

>  <GROUP_LABEL>
FALSE

$$$$
>  <COMPOUND>
CN(C)CCCn1c2c3ccccc3ccc2c2oc(=O)c3ccccc3c21

>  <GROUP_LABEL>
FALSE

$$$$
>  <COMPOUND>
OC1(C#CI)CCCCC1

>  <GROUP_LABEL>
TRUE

$$$$
>  <COMPOUND>
COc1cc([C@@H]2c3cc4c(cc3[C@@H](NC(=O)NO)[C@H]3COC(=O)[C@H]23)OCO4)cc(OC)c1O

>  <GROUP_LABEL>
FALSE

$$$$
>  <COMPOUND>
CNCC(C)CNC

>  <GROUP_LABEL>
FALSE

$$$$
>  <COMPOUND>
C[N+](C)([O-])CCCNc1c2ccccc2nc2cccc([N+](=O)[O-])c12

>  <GROUP_LABEL>
FALSE

$$$$
>  <COMPOUND>
NC(N)=NC(N)=Nc1ccccc1 (tested in a mixture with another compound)

>  <GROUP_LABEL>
FALSE

$$$$
>  <COMPOUND>
NC(CS)C(=O)NCCNc1ccc(NCCNC(=O)C(N)CS)c2c1C(=O)c1c(O)ccc(O)c1C2=O (configuration not stated)

>  <GROUP_LABEL>
FALSE

$$$$
>  <COMPOUND>
CCO/C=C1\SC(=S)N(c2ccc(OCC)cc2)C1=O

>  <GROUP_LABEL>
FALSE

$$$$
>  <COMPOUND>
COc1ccc(N=c2cc(-c3ccccc3)oc3ccccc23)cc1

>  <GROUP_LABEL>
FALSE

$$$$
>  <COMPOUND>
CCOC(=O)/C(=C\c1cccc(C)c1)C(C)=O

>  <GROUP_LABEL>
TRUE

$$$$
>  <COMPOUND>
O=C1C=C(NCCc2cc(Br)c(O)c(Br)c2)C(=O)c2ncccc21

>  <GROUP_LABEL>
FALSE

$$$$
>  <COMPOUND>
CC(=O)O[C@H]1CC[C@@]2(C)C(=CC[C@@H]3C2CC[C@]2(C)C(=O)NC(=O)CC32)C1 (some centres not stated)

>  <GROUP_LABEL>
FALSE

$$$$
>  <COMPOUND>
CSC(=S)N/N=C/c1ccccc1

>  <GROUP_LABEL>
FALSE

$$$$
>  <COMPOUND>
Nc1ccc(/C=C/c2ccc3cccnc3c2)cc1

>  <GROUP_LABEL>
TRUE

$$$$
